Measured Target: Long-chain-fatty-acid--AMP ligase FadD28 (Mycobacterium tuberculosis)
Sequence (P9WQ59 whole entry): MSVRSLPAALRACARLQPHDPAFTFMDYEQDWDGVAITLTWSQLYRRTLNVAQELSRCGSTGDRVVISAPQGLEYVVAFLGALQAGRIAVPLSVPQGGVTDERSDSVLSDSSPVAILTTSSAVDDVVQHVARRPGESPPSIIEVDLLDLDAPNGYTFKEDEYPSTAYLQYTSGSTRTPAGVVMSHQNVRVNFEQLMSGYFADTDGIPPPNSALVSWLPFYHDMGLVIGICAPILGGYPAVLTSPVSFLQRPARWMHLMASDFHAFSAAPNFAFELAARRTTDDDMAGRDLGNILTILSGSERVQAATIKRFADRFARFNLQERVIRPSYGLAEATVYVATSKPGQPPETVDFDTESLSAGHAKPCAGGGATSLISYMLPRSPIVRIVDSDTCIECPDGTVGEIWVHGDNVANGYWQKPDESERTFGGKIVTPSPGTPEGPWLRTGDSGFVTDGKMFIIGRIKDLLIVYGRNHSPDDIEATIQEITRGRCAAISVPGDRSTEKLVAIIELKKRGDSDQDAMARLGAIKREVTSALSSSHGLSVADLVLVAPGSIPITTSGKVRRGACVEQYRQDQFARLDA
Experiment Description: Inhibition of Mycobacterium tuberculosis H37Rv FAAL28 Spectra expressed in Escherichia coli BL21(DE3) cells assessed as cleavage of MEsG by spectroscopic analysis
Protocol Conditions: read-out: Ki(app)
Measured pKi, listed per entry.
Note: pKi values are expressed as the negative base-10 logarithm of concentration in M.

Smiles Input: Nc1ncnc2c1ncn2[C@@H]1O[C@H](COS(=O)(=O)NC(=O)CCCCCCCCCOc2ccccc2)[C@@H](O)[C@H]1O
pKi: 5.17

Q. Would you kindly share the measured pKi for `CCCCCCCCCCCCCCCC(=O)NS(=O)(=O)OC[C@H]1O[C@@H](n2cnc3c(N)ncnc32)[C@H](O)[C@@H]1O` ?
A. 6.00

Q. Would you kindly share the measured pKi for `Nc1ncnc2c1ncn2[C@@H]1O[C@H](COS(=O)(=O)NC(=O)CCCCCCCCCCNc2ccccc2)[C@@H](O)[C@H]1O` ?
A. 5.14
